# STUDY TARGET: Proteinase-activated receptor 1 (Homo sapiens)
# Sequence (P25116 whole entry): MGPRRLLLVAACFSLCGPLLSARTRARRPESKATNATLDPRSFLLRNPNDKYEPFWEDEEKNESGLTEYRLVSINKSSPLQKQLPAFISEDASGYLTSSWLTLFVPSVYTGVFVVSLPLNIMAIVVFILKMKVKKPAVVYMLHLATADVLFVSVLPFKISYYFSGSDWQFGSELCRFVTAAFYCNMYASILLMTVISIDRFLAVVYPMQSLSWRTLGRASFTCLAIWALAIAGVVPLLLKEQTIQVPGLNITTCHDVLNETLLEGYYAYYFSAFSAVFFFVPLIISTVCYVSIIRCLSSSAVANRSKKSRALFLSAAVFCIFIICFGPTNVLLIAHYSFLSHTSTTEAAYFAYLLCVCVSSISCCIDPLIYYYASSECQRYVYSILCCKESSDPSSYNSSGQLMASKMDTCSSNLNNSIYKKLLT
# METHOD NOTES: Displacement of [3H]haTRAP from PAR-1 isolated from human platelets by liquid scintillation counting analysis
READOUT TYPE: Ki (nM)
Give the value, in units of nM, as a plain number.

See these solved cases before continuing.
CCC(=O)NC[C@@H]1CC[C@@H]2[C@@H](C1)C[C@H]1C(=O)O[C@H](C)[C@H]1[C@H]2/C=C/c1ccc(-c2cccc(F)c2)cn1 ... 12.5
C[C@H]1OC(=O)[C@@H]2C[C@@H]3C[C@H](C(=O)Nc4cccnc4)CC[C@H]3[C@H](/C=C/c3ccc(-c4cccc(C(F)(F)F)c4)cn3)[C@H]12 ... 239

Here's the next entry for you.
Data request, read-out Ki, for C[C@H]1OC(=O)[C@@H]2C[C@@H]3C[C@H](CO)CC[C@H]3[C@H](/C=C/c3ccc(-c4cccc(F)c4)cn3)[C@H]12
8
